Biological target: ΔF508-CFTR (Homo sapiens, UniProt P13569, DEL508-508)
Construct: host or cells: CFBE41o-, doxycycline-inducible
Sequence (P13569 with tags, fused parts or gaps DEL508-508): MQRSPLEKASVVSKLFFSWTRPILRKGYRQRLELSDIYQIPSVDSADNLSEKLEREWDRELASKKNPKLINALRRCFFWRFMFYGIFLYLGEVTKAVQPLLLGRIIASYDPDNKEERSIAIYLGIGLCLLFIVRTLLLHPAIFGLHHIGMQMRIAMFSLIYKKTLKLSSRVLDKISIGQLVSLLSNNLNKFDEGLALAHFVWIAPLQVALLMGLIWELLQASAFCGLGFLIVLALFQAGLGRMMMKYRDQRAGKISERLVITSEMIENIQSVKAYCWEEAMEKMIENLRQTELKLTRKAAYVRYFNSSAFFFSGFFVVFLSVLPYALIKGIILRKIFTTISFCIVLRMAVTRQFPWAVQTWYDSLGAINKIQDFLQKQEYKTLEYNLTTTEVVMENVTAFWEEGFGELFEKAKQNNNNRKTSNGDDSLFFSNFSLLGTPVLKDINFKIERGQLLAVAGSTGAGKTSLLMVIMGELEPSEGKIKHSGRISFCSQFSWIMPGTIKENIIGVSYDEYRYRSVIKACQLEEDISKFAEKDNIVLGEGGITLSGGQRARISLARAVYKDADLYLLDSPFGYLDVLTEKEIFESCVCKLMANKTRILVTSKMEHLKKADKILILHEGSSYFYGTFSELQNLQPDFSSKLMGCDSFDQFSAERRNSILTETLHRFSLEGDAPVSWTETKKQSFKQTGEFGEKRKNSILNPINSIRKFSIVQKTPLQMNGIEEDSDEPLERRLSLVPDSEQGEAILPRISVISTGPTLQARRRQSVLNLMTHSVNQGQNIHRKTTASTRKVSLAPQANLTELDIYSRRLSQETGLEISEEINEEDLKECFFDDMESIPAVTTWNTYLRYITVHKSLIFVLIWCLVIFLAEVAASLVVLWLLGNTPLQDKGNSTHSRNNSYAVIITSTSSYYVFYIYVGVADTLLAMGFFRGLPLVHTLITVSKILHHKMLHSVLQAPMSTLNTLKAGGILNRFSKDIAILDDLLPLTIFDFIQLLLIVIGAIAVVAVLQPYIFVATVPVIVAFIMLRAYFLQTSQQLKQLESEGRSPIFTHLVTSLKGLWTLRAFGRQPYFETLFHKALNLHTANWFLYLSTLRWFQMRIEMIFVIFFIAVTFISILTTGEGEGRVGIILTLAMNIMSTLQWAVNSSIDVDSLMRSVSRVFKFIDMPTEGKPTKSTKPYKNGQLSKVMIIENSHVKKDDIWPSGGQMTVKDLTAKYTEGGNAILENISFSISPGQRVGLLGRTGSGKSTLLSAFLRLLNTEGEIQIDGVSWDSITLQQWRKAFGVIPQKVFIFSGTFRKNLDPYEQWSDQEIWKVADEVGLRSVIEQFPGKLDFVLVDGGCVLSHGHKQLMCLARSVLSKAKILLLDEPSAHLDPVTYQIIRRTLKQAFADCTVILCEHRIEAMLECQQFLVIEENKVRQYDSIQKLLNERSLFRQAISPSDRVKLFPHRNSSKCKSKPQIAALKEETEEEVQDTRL
Assay: CFTR cell surface levels using HRP-tagged ΔF508-CFTR expressing CFBE cells, intrinsic corrector capacity
Type: cell-based
Parameters: concentration or dose not given beside the values
Conditions: HRP-tagged ΔF508-CFTR expressing CFBE41o- cells; compound alone (intrinsic corrector capacity); 20 hours at 33° C.
measuredMetric: % Activation (%)

- smilesStr: "COC1CCN(c2cc(C(=O)NS(C)(=O)=O)nc3c2c(C(C)C)nn3-c2ccc(F)cc2)CC1"
  testSystem: "ΔF508-CFTR (Homo sapiens, UniProt P13569, DEL508-508)"
  experimentalResult: 260.6
- smilesStr: "COC1CCN(C2CCN(c3cc(C(=O)NS(=O)(=O)N4CC(OC)C4)nc4c3c(C3CCC3)nn4-c3ccc(F)cc3)CC2)CC1"
  testSystem: "ΔF508-CFTR (Homo sapiens, UniProt P13569, DEL508-508)"
  experimentalResult: 194.33
- smilesStr: "CN(C)S(=O)(=O)NC(=O)c1cc(-c2ccc(CCN3CCOCC3)cc2)c2c(C3CCC3)nn(C3CCCCC3)c2n1"
  testSystem: "ΔF508-CFTR (Homo sapiens, UniProt P13569, DEL508-508)"
  experimentalResult: 134.2
- smilesStr: "COCCN1CCN(S(=O)(=O)NC(=O)c2cc(N3CCC(COC)CC3)c3c(C4CCC4)nn(-c4ccc(F)cc4)c3n2)CC1"
  testSystem: "ΔF508-CFTR (Homo sapiens, UniProt P13569, DEL508-508)"
  experimentalResult: 182.13
- smilesStr: "O=C(NS(=O)(=O)CCO)c1cc(N2CCC(CCN3CCOCC3)CC2)c2c(C3CCC3)nn(-c3ccc(F)cc3)c2n1"
  testSystem: "ΔF508-CFTR (Homo sapiens, UniProt P13569, DEL508-508)"
  experimentalResult: 204.5
- smilesStr: "O=C(NS(=O)(=O)N1CCC1)c1cc(N2CCC(N3CCOCC3)CC2)c2c(C3CCC3)nn(-c3ccc(F)cc3)c2n1"
  testSystem: "ΔF508-CFTR (Homo sapiens, UniProt P13569, DEL508-508)"
  experimentalResult: 257.15
- smilesStr: "COCC1CCN(c2cc(C(=O)NS(=O)(=O)CCCO)nc3c2c(C2CCC2)nn3-c2ccccc2)CC1"
  testSystem: "ΔF508-CFTR (Homo sapiens, UniProt P13569, DEL508-508)"
  experimentalResult: 364.5

---

Listed here are molecules together with their documented % Activity at 1 μM (AUC**).
Molecular target: CFTR ΔF508 (Homo sapiens, UniProt P13569, DEL508-508)
Construct: bronchial epithelial cells isolated from CF patients homozygous for the CFTR ΔF508 mutation; McGill University; Asterand; University of North Carolina hAEC-CF; host or cells: primary human bronchial epithelial cells from CF patients homozygous for ΔF508, differentiated at air-liquid interface
Sequence (P13569 with tags, fused parts or gaps DEL508-508): as above
Assay: Chronic TECC assay, primary bronchial epithelial cells of CF patients homozygous for CFTR ΔF508 (corrector, co-corrector and potentiator)
Assay type: cell-based
Conditions: chronic TECC; test compound at 1 μM; AUC = full area under the curve upon forskolin stimulation

- molecule: "CN1CCCCC1CCOc1cc(C(=O)NS(C)(=O)=O)nc2c1c(C1CCC1)nn2-c1ccccc1 (stereo not shown) [Compound 323]"
  unitText: "%"
  % Activity at 1 μM (AUC**): 217.91
- molecule: "CS(=O)(=O)NC(=O)c1cc(C2CCC(N3CCOCC3)CC2)c2c(C3CCC3)nn(-c3ccccc3)c2n1 (stereo not shown) [Compound 648]"
  unitText: "%"
  % Activity at 1 μM (AUC**): 366.0679
- molecule: "CN(C)S(=O)(=O)NC(=O)c1cc(N2CCC(N3CCC(C#N)C3)CC2)c2c(C3CCC3)nn(-c3ccc(F)cc3)c2n1 (stereo not shown) [Compound 561]"
  unitText: "%"
  % Activity at 1 μM (AUC**): 620
- molecule: "CC(C)Oc1cc(-n2nc(C3CCC3)c3c(N4CCC(N5CCOCC5)CC4)cc(C(=O)NS(C)(=O)=O)nc32)ccn1 [Compound 530]"
  unitText: "%"
  % Activity at 1 μM (AUC**): 326.6667

All figures here come from patent US10259810B2.
